target: T1, biotinylated native human ApoC3 (human, UniProt P02656 21-99, biotinylated (site not stated)); experiment: SPR, scFv-Fc over biotinylated ApoC3 on SA chip, pH 5.5
T1 construct: also called biotinylated human ApoC3
T1 sequence (P02656 21-99): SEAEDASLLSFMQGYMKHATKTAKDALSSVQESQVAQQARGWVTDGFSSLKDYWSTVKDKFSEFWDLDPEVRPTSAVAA
Field: kon. Provide a value for each of the binders that follow.
Answers are plain numbers, in M⁻¹ s⁻¹.

Below are worked cases with known answers.
binder="5E5WT scFv-Fc (scFv, part only; not given: Linker, domain order, Fc, V domains shown, not shown: another chain or arm of the molecule; a dimerising Fc or GST; small tags and cut ends) VH: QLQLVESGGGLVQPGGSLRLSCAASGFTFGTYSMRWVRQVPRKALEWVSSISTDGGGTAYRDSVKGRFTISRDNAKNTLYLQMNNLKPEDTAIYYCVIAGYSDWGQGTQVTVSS VL: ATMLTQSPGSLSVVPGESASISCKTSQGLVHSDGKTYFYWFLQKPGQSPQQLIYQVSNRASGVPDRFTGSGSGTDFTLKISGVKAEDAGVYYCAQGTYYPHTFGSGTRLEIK" measured_attribute=kon value_units="M⁻¹ s⁻¹" recorded_value=393000
binder="5E5VH5_VLWT scFv-Fc (scFv, part only; not given: Linker, domain order, Fc, V domains shown, not shown: another chain or arm of the molecule; a dimerising Fc or GST; small tags and cut ends) VH: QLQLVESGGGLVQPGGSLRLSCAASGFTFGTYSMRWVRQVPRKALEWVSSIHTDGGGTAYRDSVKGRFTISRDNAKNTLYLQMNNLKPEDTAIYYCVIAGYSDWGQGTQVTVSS VL: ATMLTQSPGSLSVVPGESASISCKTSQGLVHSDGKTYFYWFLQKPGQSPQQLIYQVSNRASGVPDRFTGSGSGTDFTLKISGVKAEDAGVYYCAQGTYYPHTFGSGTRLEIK" measured_attribute=kon value_units="M⁻¹ s⁻¹" recorded_value=147000
binder="5E5VH12_VLWT scFv-Fc (scFv, part only; not given: Linker, domain order, Fc, V domains shown, not shown: another chain or arm of the molecule; a dimerising Fc or GST; small tags and cut ends) VH: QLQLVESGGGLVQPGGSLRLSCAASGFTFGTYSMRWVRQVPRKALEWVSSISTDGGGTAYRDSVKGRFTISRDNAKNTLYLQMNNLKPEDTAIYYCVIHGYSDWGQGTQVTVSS VL: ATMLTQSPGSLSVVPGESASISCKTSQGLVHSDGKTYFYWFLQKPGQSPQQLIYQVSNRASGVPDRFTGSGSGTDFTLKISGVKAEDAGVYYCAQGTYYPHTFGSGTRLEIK" measured_attribute=kon value_units="M⁻¹ s⁻¹" recorded_value=129000

Requested read-out: kon. Entry: 5E5VHWT_VL8 scFv-Fc (scFv, part only; not given: Linker, domain order, Fc, V domains shown, not shown: another chain or arm of the molecule; a dimerising Fc or GST; small tags and cut ends) VH: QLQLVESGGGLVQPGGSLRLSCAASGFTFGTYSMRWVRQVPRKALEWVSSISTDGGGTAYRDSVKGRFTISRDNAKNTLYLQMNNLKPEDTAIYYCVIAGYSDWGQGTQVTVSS VL: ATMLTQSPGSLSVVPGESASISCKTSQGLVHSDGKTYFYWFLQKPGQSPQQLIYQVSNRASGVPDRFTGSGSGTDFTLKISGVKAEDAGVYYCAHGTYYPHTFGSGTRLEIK
269000
